Assignment: determine reported koff for the given binders.
Target: T1, soluble rat RGMa (rat, UniProt D4A188 48-421)
T1 construct: Soluble antigen in BIAcore
T1 sequence: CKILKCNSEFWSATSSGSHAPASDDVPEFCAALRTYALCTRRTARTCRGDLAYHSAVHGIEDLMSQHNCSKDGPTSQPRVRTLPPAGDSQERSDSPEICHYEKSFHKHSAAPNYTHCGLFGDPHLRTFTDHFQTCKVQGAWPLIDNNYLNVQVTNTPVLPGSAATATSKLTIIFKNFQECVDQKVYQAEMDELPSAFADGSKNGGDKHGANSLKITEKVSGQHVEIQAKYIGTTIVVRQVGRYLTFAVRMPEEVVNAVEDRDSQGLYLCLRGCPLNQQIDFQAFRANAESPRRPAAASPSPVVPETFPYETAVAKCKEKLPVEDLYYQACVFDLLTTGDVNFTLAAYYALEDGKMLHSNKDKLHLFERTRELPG
Assay: SPR (BIAcore);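 note: binding kinetics and affinity of anti-HJV antibodies toward soluble rat RGMa, determined by SPR on a BIAcore instrument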
Give bare numbers, in s⁻¹.

Below: 2 binders and their reported koff.
>  <binder>
hHA-002 (antibody, human IgG1, kappa, L234A L235A, V domains shown, hIgG1 L234A, L235A, kappa) VH: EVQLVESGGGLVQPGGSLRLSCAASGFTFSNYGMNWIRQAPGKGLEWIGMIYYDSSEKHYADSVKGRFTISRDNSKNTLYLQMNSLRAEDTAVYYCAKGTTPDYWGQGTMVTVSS VL: DVVLTQSPLSLPVTLGQPASISCRSSQSLETSDGDTFLEWFQQRPGQSPRLLIYEVSSRFSGVPDRFSGSGSGTDFTLKISRVEAEDVGVYYCMQVTHDPLTFGQGTKLEIKR

>  <unit-label>
s⁻¹

>  <koff>
5.5e-05

$$$$
>  <binder>
hHA-003 (antibody, human IgG1, kappa, L234A L235A, V domains shown, hIgG1 L234A, L235A, kappa) VH: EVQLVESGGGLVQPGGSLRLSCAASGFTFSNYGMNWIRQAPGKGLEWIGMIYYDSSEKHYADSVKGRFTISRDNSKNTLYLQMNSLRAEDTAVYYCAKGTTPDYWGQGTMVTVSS VL: DVVLTQSPLSLPVTLGQPASISCRSSQSLETSDGDTFLEWFQQRPGQSPRLLIYEVSNRFSGVPDRFSGSGSGTDFTLKISRVEAEDVGVYYCFQVTHDPVTFGQGTKLEIKR

>  <unit-label>
s⁻¹

>  <koff>
3.1e-05

$$$$

Prompt: # query: koff of entry hHA-005 (antibody, human IgG1, kappa, L234A L235A, V domains shown, hIgG1 L234A, L235A, kappa) VH: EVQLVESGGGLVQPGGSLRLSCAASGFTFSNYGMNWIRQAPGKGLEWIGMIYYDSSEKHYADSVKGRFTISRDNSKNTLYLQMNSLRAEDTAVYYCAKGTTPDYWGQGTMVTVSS VL: DVVLTQSPLSLPVTLGQPASISCRSSQSLEESDGYTFLEWFQQRPGQSPRLLIYDVSERFSGVPDRFSGSGSGTDFTLKISRVEAEDVGVYYCFQATYDPLTFGQGTKLEIKR
Completion: 0.00021

Value source: patent US20240417458A1
